B1: library; a variant is named by its letters at N, in order (parent)
chain: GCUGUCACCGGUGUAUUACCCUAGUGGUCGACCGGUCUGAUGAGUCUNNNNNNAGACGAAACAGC

Variants of: B1
Test: normalized RNA/DNA level without ligand (relative to sTRSVctl = 100) (log10 (% of sTRSVctl)); ligand: hypoxanthine (xanthine aptamer); higher = less ribozyme self-cleavage, higher mRNA level
Conditions: HEK293T, reporter: mCherry (pCS4076), ligand present: no
Observed Property: normalized RNA/DNA level without ligand (log10)

>>> experimental_value("AUGCUG")
1.61
>>> experimental_value("CCAUAG")
1.55
>>> experimental_value("GCUGUG")
1.76
>>> experimental_value("CGAAGG")
1.4
>>> experimental_value("GCCGCU")
1.95
>>> experimental_value("AGGGAG")
1.4
>>> experimental_value("AUUGUC")
1.97
>>> experimental_value("GAUUCA")
1.86
>>> experimental_value("UUCUGU")
1.88
>>> experimental_value("CGGUGU")
1.85
>>> experimental_value("UGUCAG")
1.74
>>> experimental_value("CUUAAC")
1.82
>>> experimental_value("GAUUUC")
1.91
>>> experimental_value("CAGUCU")
1.79
>>> experimental_value("CAGUCG")
1.89
>>> experimental_value("GAUUAC")
1.8
>>> experimental_value("GCCGCC")
1.81
>>> experimental_value("UGACUA")
1.86
>>> experimental_value("CGCAAC")
1.88
>>> experimental_value("ACAAAC")
1.83
>>> experimental_value("ACACCC")
1.87
>>> experimental_value("ACCGAC")
1.82
